test system: Bacillus subtilis; experiment: Antimicrobial activity against Bacillus subtilis at 200 ug/ml after 48 hr by cup-plate method; assay type: functional; conditions: read-out: IZ
MEASURED ATTRIBUTE: zone of inhibition at 200 µg/mL (mm)
Report as a plain number; the unit mm is understood.

Solved cases below.
O=C(c1ccc(Nc2nc(-c3ccccc3)nc3ccccc23)cc1)[n+]1nc([S-])sc1-c1cc([N+](=O)[O-])ccc1Cl: 22
O=C(O)c1cn(C2CC2)c2cc(N3CCNCC3)c(F)cc2c1=O: 35
O=C(c1ccc(Nc2nc(-c3ccccc3)nc3ccccc23)cc1)[n+]1nc([S-])sc1-c1ccc(Cl)cc1: 21
O=C(c1ccc(Nc2nc(-c3ccccc3)nc3ccccc23)cc1)[n+]1nc([S-])sc1-c1ccc([N+](=O)[O-])cc1: 19
O=C(c1ccc(Nc2nc(-c3ccccc3)nc3ccccc23)cc1)[n+]1nc([S-])sc1-c1ccccc1: 18

Give zone of inhibition at 200 µg/mL for the following compound: "Cc1sc([S-])n[n+]1C(=O)c1ccc(Nc2nc(-c3ccccc3)nc3ccccc23)cc1" 21

Give zone of inhibition at 200 µg/mL for the following compound: "O=C(c1ccc(-n2c(-c3ccccc3)nc3ccccc3c2=O)cc1)[n+]1nc([S-])sc1-c1ccc([N+](=O)[O-])cc1" 24

Give zone of inhibition at 200 µg/mL for the following compound: "Cc1sc([S-])n[n+]1C(=O)c1ccc(-n2c(-c3ccccc3)nc3ccccc3c2=O)cc1" 22

Give zone of inhibition at 200 µg/mL for the following compound: "O=C(c1ccc(-n2c(-c3ccccc3)nc3ccccc3c2=O)cc1)[n+]1nc([S-])sc1-c1cc([N+](=O)[O-])ccc1Cl" 18

Give zone of inhibition at 200 µg/mL for the following compound: "O=C(c1ccc(-n2c(-c3ccccc3)nc3ccccc3c2=O)cc1)[n+]1nc([S-])sc1-c1cccc([N+](=O)[O-])c1" 15

====

test system: Bacillus subtilis; assay: Antimicrobial activity against Bacillus subtilis at 200 ug/ml after 48 hr by cup-plate method; type: functional; details: read-out: IZ
Quick reference: zone of inhibition at 200 µg/mL of the listed items.
Report as a plain number; the unit mm is understood.

COc1ccc(-c2sc([S-])n[n+]2C(=O)c2ccc(-n3c(-c4ccccc4)nc4ccccc4c3=O)cc2)cc1[N+](=O)[O-]: 16
O=C(c1ccc(-n2c(-c3ccccc3)nc3ccccc3c2=O)cc1)[n+]1nc([S-])sc1-c1ccc(Cl)c([N+](=O)[O-])c1: 14
O=C(c1ccc(-n2c(-c3ccccc3)nc3ccccc3c2=O)cc1)[n+]1nc([S-])sc1-c1ccccc1: 25
O=C(c1ccc(-n2c(-c3ccccc3)nc3ccccc3c2=O)cc1)[n+]1nc([S-])sc1-c1ccc(Cl)cc1: 20
O=C(c1ccc(Nc2nc(-c3ccccc3)nc3ccccc23)cc1)[n+]1nc([S-])sc1-c1cccc([N+](=O)[O-])c1: 16
COc1ccc(-c2sc([S-])n[n+]2C(=O)c2ccc(Nc3nc(-c4ccccc4)nc4ccccc34)cc2)cc1[N+](=O)[O-]: 24

Give zone of inhibition at 200 µg/mL for the following compound: "O=C(c1ccc(Nc2nc(-c3ccccc3)nc3ccccc23)cc1)[n+]1nc([S-])sc1-c1ccc(Cl)c([N+](=O)[O-])c1" 19

Data credit: ChEMBL document CHEMBL3044680
